system: 885724-159-R-J1-PDC complex spheroid viability; assay: Anticancer human tumor 885724-159-R-J1-PDC patient-derived pancreatic adenocarcinoma cell line growth inhibition [POLQ]; conditions: second compound 1 µM; first compound 3.16 µM; active means viability on the fitted dose curve at most 10% of control; inactive means the rest
Outcome codes: y = active, n = inactive

compound	assignedCategory
COc1cc2cc(C(=O)CCC(=O)O)sc2cc1OC + Cc1cccc(N(C)C(=O)C2C(O)CCN2c2nc(C)cc(C(F)(F)F)c2C#N)c1	n
CC1COCCN1c1cc(C2(S(C)(=N)=O)CC2)nc(-c2ccnc3[nH]ccc23)n1 (stereo not drawn) + Nc1ccc(C#CCN(C(=O)Cc2ncc(C(F)(F)F)cc2C(F)(F)F)c2ccc(F)cc2)nn1	n
COc1cccc2c1C(=O)c1c(O)c3c(c(O)c1C2=O)CC(O)(C(=O)CO)CC3OC1CC(N)C(O)C(C)O1 (stereo not drawn) + COC1C(OC(N)=O)C(O)C(Oc2ccc3c(O)c(NC(=O)c4ccc(O)c(CC=C(C)C)c4)c(=O)oc3c2C)OC1(C)C	y

----------
tested on: 885724-159-R-J1-PDC complex spheroid viability; experiment: Anticancer human tumor 885724-159-R-J1-PDC cell line growth inhibition [POLQ]; settings: second compound 0.316 µM; first compound 10 µM; active compounds read low;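 further: spheroids exposed to compounds for 7 days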
measuredProperty: viability, T/C (%)

compound	endpointResult
COc1ccc([C@@H](O)c2cc(-c3ncnc4cc(N5CCOCC5)ccc34)c(F)cc2Cl)nn1 + COC1C(OC(N)=O)C(O)C(Oc2ccc3c(O)c(NC(=O)c4ccc(O)c(CC=C(C)C)c4)c(=O)oc3c2C)OC1(C)C	32.8
CC(C)n1c(=O)n(C)c2cnc3cc(F)c(-c4ccc(OCCCN5CCCCC5)nc4)cc3c21 + Cc1cccc(N(C)C(=O)C2C(O)CCN2c2nc(C)cc(C(F)(F)F)c2C#N)c1	66.6
CCCS(=O)(=O)Nc1ccc(F)c(C(=O)c2c[nH]c3ncc(-c4ccc(Cl)cc4)cc23)c1F + Cc1cccc(N(C)C(=O)C2C(O)CCN2c2nc(C)cc(C(F)(F)F)c2C#N)c1	100
CCc1cc2c(N3CCc4c(cc(Cn5ccnc5)cc4-c4cn(C)nc4C(F)(F)F)C3=O)cc(C)nc2c(OC)n1 + Nc1ccc(C#CCN(C(=O)Cc2ncc(C(F)(F)F)cc2C(F)(F)F)c2ccc(F)cc2)nn1	69.7
CC1COCCN1c1cc(C2(O)CC3CCC(C2)O3)c2cnn(-c3ccn[nH]3)c2n1 (configuration not stated) + Nc1ccc(C#CCN(C(=O)Cc2ncc(C(F)(F)F)cc2C(F)(F)F)c2ccc(F)cc2)nn1	28.4
COc1cc(C2c3cc4c(cc3C(OC3OC5COC(C)OC5C(O)C3O)C3COC(=O)C23)OCO4)cc(OC)c1O (configuration not stated) + COC1C(OC(N)=O)C(O)C(Oc2ccc3c(O)c(NC(=O)c4ccc(O)c(CC=C(C)C)c4)c(=O)oc3c2C)OC1(C)C	41.9
CCc1cc2c(N3CCc4c(cc(Cn5ccnc5)cc4-c4cn(C)nc4C(F)(F)F)C3=O)cc(C)nc2c(OC)n1 + Cc1cccc(N(C)C(=O)C2C(O)CCN2c2nc(C)cc(C(F)(F)F)c2C#N)c1	68.7
Nc1ccn(C2OC(CO)C(O)C2(F)F)c(=O)n1 (configuration not stated) + Cc1cccc(N(C)C(=O)C2C(O)CCN2c2nc(C)cc(C(F)(F)F)c2C#N)c1	45.4
O=C(Nc1ccc(O)c(NS(=O)(=O)c2ccc(F)cc2)c1)c1ccc(-c2ccccc2)cc1 + Cc1cccc(N(C)C(=O)C2C(O)CCN2c2nc(C)cc(C(F)(F)F)c2C#N)c1	108
COc1cc2cc(C(=O)CCC(=O)O)sc2cc1OC + Cc1cccc(N(C)C(=O)C2C(O)CCN2c2nc(C)cc(C(F)(F)F)c2C#N)c1	85.7
CC1COCCN1c1cc(C2(S(C)(=N)=O)CC2)nc(-c2ccnc3[nH]ccc23)n1 (configuration not stated) + Cc1cccc(N(C)C(=O)C2C(O)CCN2c2nc(C)cc(C(F)(F)F)c2C#N)c1	49.7
CCc1cc2c(N3CCc4c(cc(Cn5ccnc5)cc4-c4cn(C)nc4C(F)(F)F)C3=O)ccnc2c(OC)n1 + Nc1ccc(C#CCN(C(=O)Cc2ncc(C(F)(F)F)cc2C(F)(F)F)c2ccc(F)cc2)nn1	69.8

----------
test system: 885724-159-R-J1-PDC complex spheroid viability; test: Anticancer human tumor 885724-159-R-J1-PDC cell line growth inhibition [POLQ]; conditions: second compound 1 µM; first compound 10 µM; active compounds read low;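 further: spheroids exposed to compounds for 7 days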
Each entry below carries its reported viability, T/C.

compound	tgt	viability, T/C
CCc1cc2c(N3CCc4c(cc(Cn5ccnc5)cc4-c4cn(C)nc4C(F)(F)F)C3=O)ccnc2c(OC)n1 + Cc1cccc(N(C)C(=O)C2C(O)CCN2c2nc(C)cc(C(F)(F)F)c2C#N)c1	885724-159-R-J1-PDC complex spheroid viability	62.8%
O=C(Nc1ccc(O)c(NS(=O)(=O)c2ccc(F)cc2)c1)c1ccc(-c2ccccc2)cc1 + COC1C(OC(N)=O)C(O)C(Oc2ccc3c(O)c(NC(=O)c4ccc(O)c(CC=C(C)C)c4)c(=O)oc3c2C)OC1(C)C	885724-159-R-J1-PDC complex spheroid viability	71.4%
CNCc1ccc(-c2[nH]c3cc(F)cc4c3c2CCNC4=O)cc1 + Cc1cccc(N(C)C(=O)C2C(O)CCN2c2nc(C)cc(C(F)(F)F)c2C#N)c1	885724-159-R-J1-PDC complex spheroid viability	86.3%
COc1ccc([C@@H](O)c2cc(-c3ncnc4cc(N5CCOCC5)ccc34)c(F)cc2Cl)nn1 + Nc1ccc(C#CCN(C(=O)Cc2ncc(C(F)(F)F)cc2C(F)(F)F)c2ccc(F)cc2)nn1	885724-159-R-J1-PDC complex spheroid viability	33.3%
O=c1[nH]cc(F)c(=O)[nH]1 + COC1C(OC(N)=O)C(O)C(Oc2ccc3c(O)c(NC(=O)c4ccc(O)c(CC=C(C)C)c4)c(=O)oc3c2C)OC1(C)C	885724-159-R-J1-PDC complex spheroid viability	71.8%
O=c1[nH]cc(F)c(=O)[nH]1 + Nc1ccc(C#CCN(C(=O)Cc2ncc(C(F)(F)F)cc2C(F)(F)F)c2ccc(F)cc2)nn1	885724-159-R-J1-PDC complex spheroid viability	71.7%
COc1cc2cc(C(=O)CCC(=O)O)sc2cc1OC + COC1C(OC(N)=O)C(O)C(Oc2ccc3c(O)c(NC(=O)c4ccc(O)c(CC=C(C)C)c4)c(=O)oc3c2C)OC1(C)C	885724-159-R-J1-PDC complex spheroid viability	76.2%
CNCc1ccc(-c2[nH]c3cc(F)cc4c3c2CCNC4=O)cc1 + COC1C(OC(N)=O)C(O)C(Oc2ccc3c(O)c(NC(=O)c4ccc(O)c(CC=C(C)C)c4)c(=O)oc3c2C)OC1(C)C	885724-159-R-J1-PDC complex spheroid viability	78.3%
CCCS(=O)(=O)Nc1ccc(F)c(C(=O)c2c[nH]c3ncc(-c4ccc(Cl)cc4)cc23)c1F + Cc1cccc(N(C)C(=O)C2C(O)CCN2c2nc(C)cc(C(F)(F)F)c2C#N)c1	885724-159-R-J1-PDC complex spheroid viability	97.5%
CCc1cc2c(N3CCc4c(cc(Cn5ccnc5)cc4-c4cn(C)nc4C(F)(F)F)C3=O)cc(C)nc2c(OC)n1 + Cc1cccc(N(C)C(=O)C2C(O)CCN2c2nc(C)cc(C(F)(F)F)c2C#N)c1	885724-159-R-J1-PDC complex spheroid viability	68%
Nc1ccn(C2OC(CO)C(O)C2(F)F)c(=O)n1 (stereo not drawn) + Cc1cccc(N(C)C(=O)C2C(O)CCN2c2nc(C)cc(C(F)(F)F)c2C#N)c1	885724-159-R-J1-PDC complex spheroid viability	42.8%
CNCc1ccc(-c2[nH]c3cc(F)cc4c3c2CCNC4=O)cc1 + Nc1ccc(C#CCN(C(=O)Cc2ncc(C(F)(F)F)cc2C(F)(F)F)c2ccc(F)cc2)nn1	885724-159-R-J1-PDC complex spheroid viability	83.4%
COc1cccc2c1C(=O)c1c(O)c3c(c(O)c1C2=O)CC(O)(C(=O)CO)CC3OC1CC(N)C(O)C(C)O1 (stereo not drawn) + Nc1ccc(C#CCN(C(=O)Cc2ncc(C(F)(F)F)cc2C(F)(F)F)c2ccc(F)cc2)nn1	885724-159-R-J1-PDC complex spheroid viability	7.34%
O=C(Nc1ccc(O)c(NS(=O)(=O)c2ccc(F)cc2)c1)c1ccc(-c2ccccc2)cc1 + Cc1cccc(N(C)C(=O)C2C(O)CCN2c2nc(C)cc(C(F)(F)F)c2C#N)c1	885724-159-R-J1-PDC complex spheroid viability	111%
CC1COCCN1c1cc(C2(O)CC3CCC(C2)O3)c2cnn(-c3ccn[nH]3)c2n1 (stereo not drawn) + Nc1ccc(C#CCN(C(=O)Cc2ncc(C(F)(F)F)cc2C(F)(F)F)c2ccc(F)cc2)nn1	885724-159-R-J1-PDC complex spheroid viability	27%
C#Cc1c(F)ccc2cc(O)cc(-c3ncc4c(N5CC6CCC(C5)N6)nc(OCC56CCCN5CC(F)C6)nc4c3F)c12 (stereo not drawn) + Nc1ccc(C#CCN(C(=O)Cc2ncc(C(F)(F)F)cc2C(F)(F)F)c2ccc(F)cc2)nn1	885724-159-R-J1-PDC complex spheroid viability	24.2%
CCc1cc2c(N3CCc4c(cc(Cn5ccnc5)cc4-c4cn(C)nc4C(F)(F)F)C3=O)ccnc2c(OC)n1 + COC1C(OC(N)=O)C(O)C(Oc2ccc3c(O)c(NC(=O)c4ccc(O)c(CC=C(C)C)c4)c(=O)oc3c2C)OC1(C)C	885724-159-R-J1-PDC complex spheroid viability	59.1%
CCCS(=O)(=O)Nc1ccc(F)c(C(=O)c2c[nH]c3ncc(-c4ccc(Cl)cc4)cc23)c1F + COC1C(OC(N)=O)C(O)C(Oc2ccc3c(O)c(NC(=O)c4ccc(O)c(CC=C(C)C)c4)c(=O)oc3c2C)OC1(C)C	885724-159-R-J1-PDC complex spheroid viability	68.1%
